- Assay method text: protease stability score; higher = more stable; yeast display proteolysis, trypsin and chymotrypsin;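 further: relative to predicted unfolded state with 0 unfolded-like and 1 meaning tenfold more protease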
Value kind: protease stability score

As a guide, the following entries are already answered.
>>> test_value("DEERVKQVQKKAFEAVMKGNDDEMRKIGKPNVRYEYIDEKNEGQEAVDVVIQLVKKVGAEAKVRRTEVKGDTVRAIFVYNDGDQTVQTKVEVKYEGDKVKEARVELTDEVQKVLHKG")
-0.027
>>> test_value("SEEEEQLIRMADVFLHLFLTGDEDTLRSLFDPNAKLDINGVHSVGRENVKKAKEEWENKLGVNHHRLHEIRVVNGRTDLDGEVEWDGKRQRVRLVLVLINGRIRHEKIIFE")
1.03
>>> test_value("SEEERHSREMMKLYYKFLETGDEEKFLSLADPDVRIVFNGRDYHGWKDMEKLFHRLLKELGVDHFHIEHVRIDIIDGVAFAFFEVSYNIDGKSLHMHYRFYVKKIDGKWHVRWIHLEVK")
1.59
>>> test_value("DEDEEHARHMLEIFMHAVITGDEDTLKELVDPNVKLVVNGREFHGWEEYLKVHRHWRMRDAHIKHVEVQGEKVIVDTRLHGRVDGKLTDFRTEIIVRKINGRWHLESERVH")
2.13

input: What value of protease stability score has been recorded for this entry: `DEEEKLSQHMLKEWFEWTITGDEDTLAKMADPNVRVHIGDYHLHGRESMLKWLHDFIRDLGVERIDFHLRDRTVQGNKARLHVVENVNGKSTETEVIIDVIDGRMKLVEIRIR`
output: 0.198

input: What value of protease stability score has been recorded for this entry: `HEIDEWSEEWKHELIHNLRTGDEHRLKELADPHTRIIIDGREIHGMDFALKLIHKRVMEMRHKEFHIRRIDHQGEKIVMDVEVRVNFNGREDSVNFRIISEKFNGRWIIHYITLI`
output: 1.49

input: What value of protease stability score has been recorded for this entry: `SDEEDHWHELLERIVRLLMTGDEKTLNKLFDPNMRIIIIIGDKEIRLHGRHKFEKWVRDFLNKFKNVKIEIDDHRAVNGVVQIDGTLFIDGREHHVENNFFIVNGRITEIQIHIK`
output: 1.28

input: What value of protease stability score has been recorded for this entry: `SEEEDDLQHYIDVLRHILHTGDWQKFSEMADPTVKLKINGVEYHGREKLAHMLKKHLEELGYTRIEVELRSITIQGEFIKSDIKLDVNGQELRVRVDFYKINGKWSMTFLQIE`
output: 1.45

input: What value of protease stability score has been recorded for this entry: `DEFHHSVELAIRIIFEILRTGDEHHMDTMADPDVRIIIGDKHNVGRELVKDVMRRLVTEWRIRHWEIKNSHLIGDKLLVDSHVEVEVGDFNLRTDVHLVFTKINGRWTLHSHHID`
output: 1.09

input: What value of protease stability score has been recorded for this entry: `SEEEHDAHIALKIWLDNLFTGDEEKLKEMMDPNVRMDFDGRHIHGREAIEMLLRRVDHWHHIEVRLEHLRIIGDKVILHIRQVEHIQIGDKHDRVHSNITLVFLKFDGKWFIREIRIK`
output: 2.78

input: What value of protease stability score has been recorded for this entry: `SELEELMHKFAKLFIHLWETGNEELLTKMADPNTRLIINGREVIGMERLLEVFHYIKTEIRLDTMRLEHIDWQGNKAHSHTRLHGEFNGRRHEDESEIHIRVIDGRVHTFEIRFK`
output: 1.2

====

- Assay method text: protease stability score; higher = more stable; yeast display proteolysis, trypsin and chymotrypsin;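 further: relative to predicted unfolded state with 0 unfolded-like and 1 meaning tenfold more protease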
Parameter: protease stability score. Scope: all listed entries.
Output: the number by itself.

As a guide, the following entries are already answered.
>>> test_value("DEHRRELKEAIEMMLTALYTGDEKILLELIDPNTRLDVNGRELHGRDDWVEETRRIKNLKFHVHHIDVQGEKIHVDGLVIFNGRERRVHYNAEKYDGRWILTHINVR")
1.22
>>> test_value("SEEEHDTRRAIEIFLRIIMTGNEEDFERLFDPDARSEWNGVELHGREIITHIWLEIFDRFPNIKIEVRVERYRIQGEKVDIDMELIFRVGDKEDSRKTRMHVLKVDGKWTVKLFKIK")
2.33
>>> test_value("DQEEHEFYNVLRLFMFTLMTGDEHTLKKLLDPNARIEINGQERHGREEILHHMNRNLHEIRMKTLEVKRESVYGNYAHADTRLRGEVNGRESIVTVHIYIQVINGRIEHVHLDIK")
1.45
>>> test_value("SEDDRDANNMREILQHLWFTGNEEEFLRLLDPDTLFHVNGQQKVGRERVEELLHHLLEKLGADHEEIHDWEVRLQGDKLDIHVHIRLIIGDKEFRIHIDFHIYKIDGRWRIHSVKLEIK")
2.1
>>> test_value("DELDKLAHIMMEEILRNWVTGDEDRHNELADPTVRMHSIVGDKHLEIHGREIFTEFLKRIKNVTFEIRLTDLKIQGEKAHSHTRLILRFDGQQVERDTEVTIIVINGRVKDVSIIIR")
1.06

input: What value of protease stability score has been recorded for this entry: `TEDEKRYDDLVRHMLEVHRTGDEDLLERLLDPNARFLIDGVEYHGREQALEIARELRITSIRIRRIEFYGDKVTMDTEIDGRVNGRRRDTRVKEIWLKVDGKWYLESMEIH`
output: 1.43

input: What value of protease stability score has been recorded for this entry: `SEDEHDARHAIELFLRSMETGDEQSIWELADPHTLSDIDGVKLHGRDLWITFLRRYSETLGVDRVIVQVERVEVQGDKVRSHIRLHINGVTLNSRVHAEKINGVWLNRKVEFG`
output: 1.3

====

Parameter: protease stability score. Scope: all listed entries.
- Assay method text: protease stability score; higher = more stable; yeast display proteolysis, trypsin and chymotrypsin;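 further: relative to predicted unfolded state with 0 unfolded-like and 1 meaning tenfold more protease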

>>> test_value("TEEDELRELAIRLLEESLRTGNEQDLRELFDPNTRIVIGNKDFHGMEHWVRWVFEWRKEHGIKMRIEVKRVDVQGDKIRIDTVLHIDVGDKHHVTRTELHAKKVDGKWFSTELRIN")
2.23
>>> test_value("SEDEKTTKDVFREIKEILLTGDWRALERLLDPHVRFDINGQEIHGRESILEYWLEQVRRLGIDHIEIRLHHIDVQGDKIHLDVRIIYRYGDKEYREETKFVIIKIDGKWHLKEYHVD")
2.11
>>> test_value("SDLDDMATKLIHEWIHAELTGDFKRIEELIDPHVRIVIEVNGRRIELIGREELRRWLEEWMEEMRHEIKLTHIEVQGEKTHVDTHLVIRAENHSYHHKTSRIFIIINGRMHSIHVHIR")
1.7
>>> test_value("DEHEESVIWLLDVMFDAWRTGDEERVRRYLDPNVRIEVDGVSIHGRERVVEHLRRIDHLSVERVEIHHSTVINGVARTDGHVLLEFNIGDKHFRIERKSDSIVEKIDGRWIVHELTYR")
0.202
>>> test_value("HEDEEMSQRMLDELMRFSRTGDWQRSAELADPHVRIIIGDKHLHGMEHWSELLKRIDHSHFHLRHVDIFENHIRLQGELRLHINGVEHRHEVIIKAHKVDGQWILESVEIR")
0.768
>>> test_value("SEEHKELRELIRITFEDLFTGDEDAFMRLFDPHTILHIGEKRYIGREIIIHALRWLGVDHMEIKHIDIQGEKVDMHMHLKVGDKSWTMHLHIEKFNGQWHSKHIEIR")
1.95
>>> test_value("DEEHHDARRIIEEFITLLKTGDEENLDEYLDPNVRIEFNGRDLHGMEWFLHFLREIRFRDDDHKRIQVKVINGQVHILIKMHVDGVWDGRRKISDVHLHFTVVKVDGRWRFTSIHVHIE")
1.35
>>> test_value("DEERKHSEDLKDMHLKSMLTGDEEFISHLADPNVRIVFNGRDLHGRELLHEILKRINEELGVSNIEVRLHHIEIVGEWVHIHGRLHWNGRTSRIHLLLFKIDGQWNIKSIHIEIE")
1.22

input: What value of protease stability score has been recorded for this entry: `SHLEEETMHIAEIFIKNELTGDERKLVELLDPNTRLHIDIGDKHIDVHGMENITKLLREIWKRLGADHVHIKDVRVQGDKADIITRIDVNGREIHSRIHILVINGKIESLKLHVE`
output: 1.33

input: What value of protease stability score has been recorded for this entry: `DHREEESKRYLDDYSRAVTTGDEDRLTELLDPNTKLNYNGQEYHGMEKYKEVLHKILTEIRFESHHVETFRVVGNKLQLDTHIKGHINGKHIRLETHVDIVKINGRWLIDSVRFQ`
output: 0.29

input: What value of protease stability score has been recorded for this entry: `SHDEEWARRFFEDFVRAILTGDEEHLFKNVDPNVRVEIGDKELHGREDFHQHLHEIRIKRFEVHDLTLQGEKVEEDIEMDGQVNGQRFRTRQRVVVDWVNGRFHHLKIEWE`
output: 0.715

====

- Assay method text: protease stability score; higher = more stable; yeast display proteolysis, trypsin and chymotrypsin;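 further: relative to predicted unfolded state with 0 unfolded-like and 1 meaning tenfold more protease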
Value kind: protease stability score
Output: the number by itself.

input: What value of protease stability score has been recorded for this entry: `DEDESLAKWAVEVLFEDLRTGDEDHLRRLMDPDTRFIIGDKIFHGREKAEEWLRLNRKRVDHLESFHIHHITVDENHLRVHGRVVGTFDGVEDKYETHIFARKVNGRWHHRQLKIK`
output: 1.49
